Sourced from paper PMC11020070

Assay Overview: Modified microsomal clearance assay with or without NADPH, mouse liver microsomes
Type: in vitro ADME
Condition Set: mouse, liver microsomes, pH 7.4, MLM, reaction initiated by test compound, -NADPH
Value Kind: CLint scaled at 1 µM (mL/min/kg)
Value expressed in mL/min/kg; do not type the unit.

Previously resolved entries follow.
structure_smiles=O=C(Nc1n[nH]c(-c2ccc(F)cc2F)n1)c1nn(-c2ccccc2)c2c1CCCC2 value_kind="CLint scaled at 1 µM" value=32.3
structure_smiles=O=C(Nc1nc[nH]n1)c1nn(-c2ccccc2)c2c1CCC2 value_kind="CLint scaled at 1 µM" value=27.8

In the following, a different compound is considered.
State, in one line, measured CLint scaled at 1 µM of `Cn1nc(C(=O)Nc2n[nH]c(-c3c(F)cccc3F)n2)cc1C1CC1`
6240

====

Target Under Test: PAR4 (Homo sapiens)
Sequence (Q96RI0 18-385): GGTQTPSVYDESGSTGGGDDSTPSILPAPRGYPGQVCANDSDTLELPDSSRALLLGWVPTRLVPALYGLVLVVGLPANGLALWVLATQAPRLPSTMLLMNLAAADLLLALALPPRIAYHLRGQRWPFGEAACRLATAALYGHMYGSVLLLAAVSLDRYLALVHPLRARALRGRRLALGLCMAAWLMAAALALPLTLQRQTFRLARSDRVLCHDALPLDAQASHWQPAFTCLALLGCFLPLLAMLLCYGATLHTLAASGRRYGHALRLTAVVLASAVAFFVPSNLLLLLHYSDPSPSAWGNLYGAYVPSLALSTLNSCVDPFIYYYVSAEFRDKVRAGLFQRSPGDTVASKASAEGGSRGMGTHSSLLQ
Assay Overview: Human platelet activity assay, flow cytometry, γ-thrombin activation
Assay type: cell-based
Design: endogenous in cells; host or cells: washed human platelets from healthy volunteers
Condition Set: Table 4 summary; read-out: human PAR4 IC50
Documented IC50 across a set of molecules
Value expressed in nM; do not type the unit.

structure_smiles=COc1cccc(-c2nc(NC(=O)c3nn(-c4ccccc4)c4c3CCCC4)n[nH]2)c1 value_kind=IC50 value=120

State, in one line, measured IC50 of `O=C(Nc1nc[nH]n1)c1nn(-c2ccccc2)c2c1CCC2`
502

State, in one line, measured IC50 of `Cc1cc(C(=O)Nc2n[nH]c(OC(F)F)n2)nn1-c1ccccc1`
583

State, in one line, measured IC50 of `Cn1nc(C(=O)Nc2n[nH]c(-c3c(F)cccc3F)n2)cc1C1CC1`
134

====

Assay Overview: Microsomal stability, human liver microsomes
Assay type: in vitro ADME
Condition Set: predicted hepatic clearance from human liver microsomes
Value Kind: human CLhep (mL/min/kg)
Value expressed in mL/min/kg; do not type the unit.

Previously resolved entries follow.
compound="O=C(Nc1nc[nH]n1)c1nn(-c2ccccc2)c2c1CCC2 [Compound 17]" value=14.8
compound="O=C(Nc1n[nH]c(-c2cccc(OC(F)F)c2)n1)c1nn(-c2ccccc2)c2c1CCCC2 [Compound 33]" value=20
compound="Cn1nc(C(=O)Nc2n[nH]c(-c3c(F)cccc3F)n2)cc1C1CC1 [Compound 12]" value=20.1
compound="COc1cccc(-c2nc(NC(=O)c3nn(-c4ccccc4)c4c3CCCC4)n[nH]2)c1 [Compound 32]" value=19.6
compound="Cc1cc(C(=O)Nc2n[nH]c(OC(F)F)n2)nn1-c1ccccc1 [Compound 9]" value=20

In the following, a different compound is considered.
State, in one line, measured human CLhep of O=C(Nc1n[nH]c(-c2ccc(F)cc2F)n1)c1nn(-c2ccccc2)c2c1CCCC2 [Compound 31]
20.1

====

Assay Overview: Modified microsomal clearance assay with or without NADPH, human liver microsomes
Type: in vitro ADME
Condition Set: human, liver microsomes, pH 7.4, HLM, reaction initiated by test compound, +NADPH
Value Kind: CLint scaled at 1 µM (L/h/kg)
Value expressed in L/h/kg; do not type the unit.

Previously resolved entries follow.
structure_smiles=O=C(Nc1nc[nH]n1)c1nn(-c2ccccc2)c2c1CCC2 value=1.61
structure_smiles=O=C(Nc1n[nH]c(-c2ccc(F)cc2F)n1)c1nn(-c2ccccc2)c2c1CCCC2 value=8.64

State, in one line, measured CLint scaled at 1 µM of `Cn1nc(C(=O)Nc2n[nH]c(-c3c(F)cccc3F)n2)cc1C1CC1`
38.5

====

Target Under Test: PAR4 (Homo sapiens, UniProt Q96RI0)
Sequence (Q96RI0 18-385): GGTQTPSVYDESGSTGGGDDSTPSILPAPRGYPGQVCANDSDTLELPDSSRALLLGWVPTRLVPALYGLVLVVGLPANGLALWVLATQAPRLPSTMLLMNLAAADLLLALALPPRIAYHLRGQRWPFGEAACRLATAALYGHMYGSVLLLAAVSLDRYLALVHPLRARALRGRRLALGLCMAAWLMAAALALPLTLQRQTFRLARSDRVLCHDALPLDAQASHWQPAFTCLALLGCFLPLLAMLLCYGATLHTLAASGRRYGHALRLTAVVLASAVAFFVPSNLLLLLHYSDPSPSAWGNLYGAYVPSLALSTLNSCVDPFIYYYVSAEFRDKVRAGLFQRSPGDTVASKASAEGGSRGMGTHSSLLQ
Assay Overview: PAR4 component of α-thrombin activation (α-thrombin + vorapaxar) in human platelets
Type: cell-based
Parameters: endogenous in cells; host or cells: platelets
Condition Set: α-thrombin + vorapaxar; read-out: PAR4 IC50 (Figure 6D)
Documented IC50 across a set of compounds
Value expressed in nM; do not type the unit.

compound="O=C(Nc1n[nH]c(-c2ccc(F)cc2F)n1)c1nn(-c2ccccc2)c2c1CCCC2 [Compound 31]" value=163

In the following, a different compound is considered.
State, in one line, measured IC50 of Cn1nc(C(=O)Nc2n[nH]c(-c3c(F)cccc3F)n2)cc1C1CC1 [Compound 12]
149

====

Target Under Test: mouse PAR4 (Mus musculus, UniProt O88634)
Construct: washed mouse platelets were prepared by collecting cardiac puncture blood; endogenous in cells; host or cells: washed mouse platelets (cardiac puncture blood)
Sequence (O88634 17-396): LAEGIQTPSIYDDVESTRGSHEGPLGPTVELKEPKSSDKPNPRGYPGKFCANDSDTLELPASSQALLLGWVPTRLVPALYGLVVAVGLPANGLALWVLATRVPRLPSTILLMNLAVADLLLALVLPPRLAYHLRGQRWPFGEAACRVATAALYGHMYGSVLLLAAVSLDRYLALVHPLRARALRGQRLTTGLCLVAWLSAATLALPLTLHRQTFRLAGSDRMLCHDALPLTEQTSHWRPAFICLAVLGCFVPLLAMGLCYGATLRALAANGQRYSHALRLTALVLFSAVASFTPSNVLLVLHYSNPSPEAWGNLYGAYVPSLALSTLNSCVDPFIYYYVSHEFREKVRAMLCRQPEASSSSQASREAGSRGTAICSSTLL
Assay Overview: Mouse platelet activity assay, flow cytometry, γ-thrombin activation
Format: cell-based
Condition Set: mouse platelets, 316 nM γ-thrombin, P-selectin; read-out: Mouse Platelets P-Sel IC50
Documented pIC50 across a set of compounds
In textbook form, pIC50 equals minus log to base ten of the concentration in mol/L.

Previously resolved entries follow.
structure_smiles=CCc1cc(C(=O)Nc2n[nH]c(-c3c(F)cccc3F)n2)nn1C target_under_test="mouse PAR4 (Mus musculus, UniProt O88634)" value=6.09
structure_smiles=O=C(Nc1n[nH]c(C2CC2)n1)c1nn(-c2cccc(F)c2)c2c1CCCC2 target_under_test="mouse PAR4 (Mus musculus, UniProt O88634)" value=6.10

Answer with pIC50 of `O=C(Nc1n[nH]c(-c2ccccc2)n1)c1nn(-c2ccccc2)c2c1CCCC2` measured for mouse PAR4 (Mus musculus, UniProt O88634).
5.94

Answer with pIC50 of `Cc1n[nH]c(NC(=O)c2nn(-c3cccc(F)c3)c3c2CCC3)n1` measured for mouse PAR4 (Mus musculus, UniProt O88634).
5.94

Answer with pIC50 of `CC(C)c1cc(C(=O)Nc2n[nH]c(-c3c(F)cccc3F)n2)nn1C` measured for mouse PAR4 (Mus musculus, UniProt O88634).
5.79

Answer with pIC50 of `O=C(Nc1n[nH]c(C2CC2)n1)c1nn(-c2ccccc2)c2c1CCCC2` measured for mouse PAR4 (Mus musculus, UniProt O88634).
6.45

====

Assay Overview: Plasma protein binding, mouse plasma
Assay type: in vitro ADME
Condition Set: pH 7.4, read-out: mouse PPB fu
Value Kind: fraction unbound at 4 h
No unit in the answer, please; the number alone is enough.

compound="O=C(Nc1n[nH]c(-c2ccc(F)cc2F)n1)c1nn(-c2ccccc2)c2c1CCCC2 [Compound 31]" value_kind="fraction unbound at 4 h" value=0.044
compound="Cn1nc(C(=O)Nc2n[nH]c(-c3c(F)cccc3F)n2)cc1C1CC1 [Compound 12]" value_kind="fraction unbound at 4 h" value=0.169

In the following, a different compound is considered.
State, in one line, measured fraction unbound at 4 h of O=C(Nc1nc[nH]n1)c1nn(-c2ccccc2)c2c1CCC2 [Compound 17]
0.006
